Target: recombinant human PDK1 (amino acids 51-556) (Homo sapiens, UniProt O15530)
Construct: containing amino acids 51-556 of the human PDK1 enzyme; made in house
Sequence (O15530 51-556): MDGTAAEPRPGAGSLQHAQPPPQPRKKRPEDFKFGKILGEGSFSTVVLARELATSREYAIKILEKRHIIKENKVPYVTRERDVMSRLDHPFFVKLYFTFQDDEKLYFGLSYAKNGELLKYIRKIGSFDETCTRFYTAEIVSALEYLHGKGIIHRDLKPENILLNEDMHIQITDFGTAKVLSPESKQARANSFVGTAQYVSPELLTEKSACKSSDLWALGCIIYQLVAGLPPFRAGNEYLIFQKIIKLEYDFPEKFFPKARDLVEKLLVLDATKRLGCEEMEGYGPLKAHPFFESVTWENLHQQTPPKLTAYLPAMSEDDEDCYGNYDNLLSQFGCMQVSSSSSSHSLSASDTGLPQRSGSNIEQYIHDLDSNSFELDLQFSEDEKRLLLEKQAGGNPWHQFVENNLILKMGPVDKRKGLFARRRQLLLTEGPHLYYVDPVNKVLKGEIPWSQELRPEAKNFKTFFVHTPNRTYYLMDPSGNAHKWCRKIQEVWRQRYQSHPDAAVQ
Experiment: PDK1 IMAP fluorescence polarization kinase assay
Format: biochemical
Conditions: 10 nM PDK1, 100 nM peptide substrate, 100 nM PIFtide, 2.5 uM ATP, 1.5 hours; rated A-D
pIC50: −log10 of the molar value.
Quantity kind: pIC50

State, in one line, measured pIC50 of `N[C@@H]1CCCN(c2c(F)cccc2NC(=O)c2csc(-c3cnn(Cc4ccccc4SC(F)(F)F)c3)n2)C1`
< 6.00

Determine its reported pIC50: `N[C@@H]1CCCN(c2c(F)cccc2NC(=O)c2csc(-c3cnn(CC4CCNCC4)c3)n2)C1`
< 6.00

Identify measured pIC50 associated with `O=C(Nc1ccccc1N1CCNCC1)c1csc(-c2cnn(Cc3cc(F)ccc3F)c2)n1`
6.00 to 6.60

Output measured pIC50 for this item: `Nc1ccc(N2CCC[C@@H](N)C2)c(NC(=O)c2csc(-c3cnn(Cc4ccccc4)c3)n2)c1`
7.30 to 9.00
